- targetOfAssay: human 5-hydroxytryptamine-2C (h5-HT2C) receptor (Homo sapiens)
- Sequence (P28335 33-458): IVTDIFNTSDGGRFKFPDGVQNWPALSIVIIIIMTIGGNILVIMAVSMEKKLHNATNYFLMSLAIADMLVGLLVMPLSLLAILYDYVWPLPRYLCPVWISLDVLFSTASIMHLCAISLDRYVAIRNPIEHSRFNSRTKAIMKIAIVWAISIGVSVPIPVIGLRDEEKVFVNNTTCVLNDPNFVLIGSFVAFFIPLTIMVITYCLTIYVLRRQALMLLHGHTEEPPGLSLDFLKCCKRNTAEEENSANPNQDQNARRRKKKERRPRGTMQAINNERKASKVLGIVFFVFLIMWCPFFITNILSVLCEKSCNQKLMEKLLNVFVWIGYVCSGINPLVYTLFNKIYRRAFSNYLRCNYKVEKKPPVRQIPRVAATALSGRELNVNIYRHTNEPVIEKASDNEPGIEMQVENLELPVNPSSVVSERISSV
readout: Kd (nM)
Give the value, in units of nM, as a plain number.

Look at this compound and give its reported Kd. COc1cc(CC(C)N)c(OC)cc1I (stereo not shown) [[^125I] DOI, reference compound]
0.4
